- Tested target: PI3Kδ (Homo sapiens)
- Sequence (O00329 whole entry, species assumed): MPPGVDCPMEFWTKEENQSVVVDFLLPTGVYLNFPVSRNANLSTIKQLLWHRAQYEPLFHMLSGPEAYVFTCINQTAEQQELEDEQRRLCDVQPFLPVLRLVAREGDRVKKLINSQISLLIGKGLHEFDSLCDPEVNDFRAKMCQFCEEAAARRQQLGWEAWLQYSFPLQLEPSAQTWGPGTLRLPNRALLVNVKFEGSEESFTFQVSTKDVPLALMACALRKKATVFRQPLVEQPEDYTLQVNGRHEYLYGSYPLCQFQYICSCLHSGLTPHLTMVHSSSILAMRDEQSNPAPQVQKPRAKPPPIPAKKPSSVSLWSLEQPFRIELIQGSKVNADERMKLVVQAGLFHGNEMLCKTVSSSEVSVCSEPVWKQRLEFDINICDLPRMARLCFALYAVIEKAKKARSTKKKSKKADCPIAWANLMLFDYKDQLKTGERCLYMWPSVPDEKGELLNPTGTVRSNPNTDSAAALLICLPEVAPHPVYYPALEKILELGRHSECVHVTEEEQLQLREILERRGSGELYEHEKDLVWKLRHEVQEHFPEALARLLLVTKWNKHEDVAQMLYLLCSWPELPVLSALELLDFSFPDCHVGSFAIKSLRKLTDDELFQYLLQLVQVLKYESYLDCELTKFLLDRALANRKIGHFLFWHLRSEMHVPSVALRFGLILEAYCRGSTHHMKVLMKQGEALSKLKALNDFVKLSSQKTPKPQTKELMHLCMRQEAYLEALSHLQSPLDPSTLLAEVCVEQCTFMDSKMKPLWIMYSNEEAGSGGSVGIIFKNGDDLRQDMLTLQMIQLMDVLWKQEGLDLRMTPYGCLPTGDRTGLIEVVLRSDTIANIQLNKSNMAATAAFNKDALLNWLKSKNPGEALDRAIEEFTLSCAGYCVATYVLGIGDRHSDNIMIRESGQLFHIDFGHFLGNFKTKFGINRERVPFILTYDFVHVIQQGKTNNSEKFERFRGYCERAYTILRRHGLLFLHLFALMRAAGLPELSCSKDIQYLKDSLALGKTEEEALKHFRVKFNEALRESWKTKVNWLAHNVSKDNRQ
- Sequence (P27986 whole entry partner, species assumed): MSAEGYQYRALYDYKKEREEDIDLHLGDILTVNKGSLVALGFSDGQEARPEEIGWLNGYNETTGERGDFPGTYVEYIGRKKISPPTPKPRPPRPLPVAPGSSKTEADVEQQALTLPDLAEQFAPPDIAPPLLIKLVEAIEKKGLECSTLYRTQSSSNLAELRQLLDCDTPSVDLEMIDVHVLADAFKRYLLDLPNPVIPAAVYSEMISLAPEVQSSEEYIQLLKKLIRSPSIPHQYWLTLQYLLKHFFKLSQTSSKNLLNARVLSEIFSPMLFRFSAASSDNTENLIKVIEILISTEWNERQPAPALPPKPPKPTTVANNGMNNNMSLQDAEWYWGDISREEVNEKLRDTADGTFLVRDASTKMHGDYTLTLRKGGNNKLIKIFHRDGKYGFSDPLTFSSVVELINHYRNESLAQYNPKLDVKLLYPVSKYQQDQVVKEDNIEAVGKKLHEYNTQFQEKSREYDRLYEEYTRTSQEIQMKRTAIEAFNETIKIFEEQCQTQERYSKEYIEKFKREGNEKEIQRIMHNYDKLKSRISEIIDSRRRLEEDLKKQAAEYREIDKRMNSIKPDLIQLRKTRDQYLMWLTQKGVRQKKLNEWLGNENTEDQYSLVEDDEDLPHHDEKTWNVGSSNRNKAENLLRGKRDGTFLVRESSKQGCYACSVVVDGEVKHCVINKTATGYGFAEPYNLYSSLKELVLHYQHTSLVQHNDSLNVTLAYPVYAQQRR
- Procedure summary: ADP-Glo luminescent assay, enzymatic activity of PI3K delta
- Format: biochemical
- Test context: ATP 25 μM; read-out: PI3K delta (nM) inhibitory activity (IC50)
Observation type: IC50

Worked examples follow.
Smiles record	Tested target	Observation type	Reported value
CC(=O)Nc1nc(C)c(-c2cc3c(c(P(C)(C)=O)c2)C(=O)N([C@@H](C)C2CC2)C3)s1	PI3Kδ (Homo sapiens)	IC50	> 1000 nM
CC(=O)Nc1nc(C)c(-c2cc3c(c(S(C)(=O)=O)n2)C(=O)N([C@@H](C)C2CC2)C3)s1	PI3Kδ (Homo sapiens)	IC50	> 1000 nM

Given the compound `CCC(=O)Nc1nc(C)c(-c2cc3c(c(P(C)(C)=O)c2)C(=O)N([C@@H](C)C2CC2)C3)s1` , what is its reported IC50?
> 1000 nM

// data source = patent US11542262B2
